Assay: In vivo pharmacokinetic experiments in beagle dogs
Details: male, plasma, iv; beagle dog, 1 mg/kg i.v.
reportedMetric: clearance

>>> reported("CN[C@@]1(c2ccc(C(F)(F)F)cc2)CCC[C@](C)(O)C1=O.Cl")
"17.7 mL/min/kg"

---

Assay: Solid-state chemical stability under different storage conditions (liquid chromatography)
Type: physicochemical
Details: 25° C., 60% RH; 30 days
reportedMetric: Stability of solid state compound, 30 Days (%)

>>> reported("CC(=O)N[C@@]1(c2ccc(C(F)(F)F)cc2)CCC[C@](C)(O)C1=O")
"99.69%"
>>> reported("CCN[C@@]1(c2ccc(C(F)(F)F)cc2)CCC[C@@H](O)C1=O.Cl [Comparative compound 9, reference compound]")
"61%"
>>> reported("CC(=O)N[C@@]1(c2ccc(C(F)(F)F)cc2)CCC[C@@H](O)C1=O [Comparative compound 10, reference compound]")
"97.51%"
>>> reported("CCN[C@@]1(c2ccc(C(F)(F)F)cc2)CCC[C@](C)(O)C1=O.Cl")
"99.70%"

---

Test: Solid-state chemical stability under different storage conditions (liquid chromatography)
Assay type: physicochemical
Conditions: 40° C., 75% RH; 5 days
Where a name gives a salt, the structure may show the parent alone.
reportedMetric: Stability of solid state compound, 5 Days (%)

>>> reported("Cl.N#Cc1cccc(C2(N)CCCC(O)C2=O)c1 (stereo not drawn) [Comparative compound 7, reference compound]")
87.5
>>> reported("CC1(O)CCCC(N)(c2c(F)cc(F)cc2F)C1=O (stereo not drawn) [Compound 44, hydrochloride]")
98.53
>>> reported("CN[C@@]1(c2ccc(C(F)(F)F)cc2)CCC[C@@H](O)C1=O.Cl [Comparative compound 8, reference compound]")
73.0
>>> reported("Cl.N[C@@]1(c2ccc(C(F)(F)F)cc2)CCC[C@@H](O)C1=O [Comparative compound 1, reference compound]")
98.94
>>> reported("CN[C@@]1(c2ccc(C(F)(F)F)cc2)CCC[C@@](C)(O)C1=O.Cl [Compound 71]")
99.46
>>> reported("CNC1(c2cccc(F)c2F)CCCC(C)(O)C1=O.Cl (stereo not drawn) [Compound 65]")
99.37

---

Assay: Solid-state chemical stability under different storage conditions (liquid chromatography)
Type: physicochemical
Settings: 40° C., 75% RH; 30 days
reportedMetric: Stability of solid state compound, 30 Days (%)

>>> reported("Cl.N[C@@]1(c2ccc(C(F)(F)F)cc2)CCC[C@@H](O)C1=O [Comparative compound 1, reference compound]")
95.88
>>> reported("Cl.NC1(c2cccc(OC(F)(F)F)c2F)CCCC(O)C1=O (centres unmarked) [Comparative compound 14, reference compound]")
93.96
>>> reported("CN(C)[C@@]1(c2ccc(C(F)(F)F)cc2)CCC[C@@](C)(O)C1=O.Cl")
99.61
>>> reported("C[C@@]1(O)CCC[C@@](N)(c2ccc(C(F)(F)F)cc2)C1=O.Cl")
99.90
>>> reported("CNC1(c2cccc(OC(F)(F)F)c2)CCCC(C)(O)C1=O.Cl (centres unmarked)")
99.57
>>> reported("CN[C@@]1(c2cccc(C#N)c2)CCC[C@](C)(O)C1=O.Cl")
99.85
>>> reported("CN[C@@]1(c2ccc(C(F)(F)F)cc2)CCC[C@@](C)(O)C1=O.Cl")
99.45
>>> reported("CN[C@@]1(c2ccccc2Cl)CCC[C@@](C)(O)C1=O.Cl")
97.82

From: patent US20250177324A1
